These entries and their values trace back to ChEMBL document CHEMBL2321860.

Target: Adenosine receptor A3 (Rattus norvegicus)
Test: Displacement of [125I]AB-MECA from rat A3 adenosine receptor expressed in HEK293 cells at 1 uM after 60 mins by scintillation counting analysis
Assay type: cell-based
endpoint.name: inhibition (%)
The answer is to be given in %; state only the numeric part.

Example compounds with recorded inhibition:
1) COc1ccc(-n2cc3nc(-c4ccccc4)nc(NC(=O)c4ccccc4)c3n2)cc1; 12
2) O=C(Cc1ccccc1)Nc1nc(-c2ccccc2)nc2cn(-c3ccccc3)nc12; 2
3) Cc1nc(NC(=O)c2ccccc2)c2nn(-c3ccccc3)cc2n1; 6

// next item, inhibition requested
Exercise: Which inhibition is reported for this compound? `COc1ccc(-n2cc3nc(-c4ccccc4)nc(NC(=O)Cc4ccccc4)c3n2)cc1`
Key: 3
